assayedSystem: Mitogen-activated protein kinase 10 (Homo sapiens)
Sequence (P53779 whole entry): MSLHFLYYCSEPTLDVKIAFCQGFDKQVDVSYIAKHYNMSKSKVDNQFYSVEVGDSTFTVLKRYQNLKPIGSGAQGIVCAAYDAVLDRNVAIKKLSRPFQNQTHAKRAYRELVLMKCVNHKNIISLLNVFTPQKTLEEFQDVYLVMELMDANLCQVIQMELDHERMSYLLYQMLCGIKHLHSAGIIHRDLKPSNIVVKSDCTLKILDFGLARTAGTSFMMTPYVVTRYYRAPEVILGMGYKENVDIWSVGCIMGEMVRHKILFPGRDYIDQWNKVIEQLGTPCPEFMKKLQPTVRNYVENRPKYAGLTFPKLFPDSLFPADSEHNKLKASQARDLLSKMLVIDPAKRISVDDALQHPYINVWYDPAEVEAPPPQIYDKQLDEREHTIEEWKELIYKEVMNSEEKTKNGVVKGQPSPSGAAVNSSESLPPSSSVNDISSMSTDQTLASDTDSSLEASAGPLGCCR
measurementNotes: Inhibition of JNK3 by radioactive filtration assay
measure: pIC50
Numbers only, as −log10 of the molar value.

[ask] Can you look up the measured pIC50 of CNc1ncnc(-c2cccnc2Oc2cc(NC(=O)c3cccc(OC(F)(F)C(F)F)c3)ccc2C)n1 for me?
[reply] 4.40

====

measurementNotes: AUC (0 to infinity) in Sprague-Dawley rat at 10 mg/kg, po
Format: ADME, organism-based
Set-up: time infinity, dose 10 mg/kg, route oral
statedConditions: plasma
measure: AUC(0-inf)
Express your answer as a number followed by its unit.

[ask] Data request, read-out AUC(0-inf), for CNc1ncnc(-c2cccnc2Oc2cc(NC(=O)c3cccc(OC(F)(F)C(F)F)c3)ccc2C)n1
[reply] 509 ng·h/mL

====

assayedSystem: Mitogen-activated protein kinase 14 (Homo sapiens, UniProt Q16539)
Sequence (Q16539 whole entry): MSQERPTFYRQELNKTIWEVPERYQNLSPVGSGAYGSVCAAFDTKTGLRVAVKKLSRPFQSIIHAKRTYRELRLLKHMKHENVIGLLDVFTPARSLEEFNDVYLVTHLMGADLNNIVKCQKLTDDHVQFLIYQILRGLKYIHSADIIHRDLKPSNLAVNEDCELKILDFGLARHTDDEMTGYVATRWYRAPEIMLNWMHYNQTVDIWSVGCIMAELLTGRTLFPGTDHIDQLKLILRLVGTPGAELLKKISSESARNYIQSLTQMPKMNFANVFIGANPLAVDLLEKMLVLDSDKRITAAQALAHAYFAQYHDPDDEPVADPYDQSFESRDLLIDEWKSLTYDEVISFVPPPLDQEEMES
measurementNotes: Inhibition of p38-alpha in THP1 cells assessed as TNFalpha levels
Assay type: cell-based, THP-1
measure: pIC50
One number for each entry, as −log10 of the molar value.

[ask] Give its pIC50 value. Item: CNc1ncnc(-c2cccnc2Oc2cc(NC(=O)c3cccc(OC(F)(F)C(F)F)c3)ccc2C)n1
[reply] 6.71

====

Exercise: for every item that follows, state its recorded pIC50.
assayedSystem: Angiopoietin-1 receptor (Homo sapiens, UniProt Q02763)
Sequence (Q02763 whole entry): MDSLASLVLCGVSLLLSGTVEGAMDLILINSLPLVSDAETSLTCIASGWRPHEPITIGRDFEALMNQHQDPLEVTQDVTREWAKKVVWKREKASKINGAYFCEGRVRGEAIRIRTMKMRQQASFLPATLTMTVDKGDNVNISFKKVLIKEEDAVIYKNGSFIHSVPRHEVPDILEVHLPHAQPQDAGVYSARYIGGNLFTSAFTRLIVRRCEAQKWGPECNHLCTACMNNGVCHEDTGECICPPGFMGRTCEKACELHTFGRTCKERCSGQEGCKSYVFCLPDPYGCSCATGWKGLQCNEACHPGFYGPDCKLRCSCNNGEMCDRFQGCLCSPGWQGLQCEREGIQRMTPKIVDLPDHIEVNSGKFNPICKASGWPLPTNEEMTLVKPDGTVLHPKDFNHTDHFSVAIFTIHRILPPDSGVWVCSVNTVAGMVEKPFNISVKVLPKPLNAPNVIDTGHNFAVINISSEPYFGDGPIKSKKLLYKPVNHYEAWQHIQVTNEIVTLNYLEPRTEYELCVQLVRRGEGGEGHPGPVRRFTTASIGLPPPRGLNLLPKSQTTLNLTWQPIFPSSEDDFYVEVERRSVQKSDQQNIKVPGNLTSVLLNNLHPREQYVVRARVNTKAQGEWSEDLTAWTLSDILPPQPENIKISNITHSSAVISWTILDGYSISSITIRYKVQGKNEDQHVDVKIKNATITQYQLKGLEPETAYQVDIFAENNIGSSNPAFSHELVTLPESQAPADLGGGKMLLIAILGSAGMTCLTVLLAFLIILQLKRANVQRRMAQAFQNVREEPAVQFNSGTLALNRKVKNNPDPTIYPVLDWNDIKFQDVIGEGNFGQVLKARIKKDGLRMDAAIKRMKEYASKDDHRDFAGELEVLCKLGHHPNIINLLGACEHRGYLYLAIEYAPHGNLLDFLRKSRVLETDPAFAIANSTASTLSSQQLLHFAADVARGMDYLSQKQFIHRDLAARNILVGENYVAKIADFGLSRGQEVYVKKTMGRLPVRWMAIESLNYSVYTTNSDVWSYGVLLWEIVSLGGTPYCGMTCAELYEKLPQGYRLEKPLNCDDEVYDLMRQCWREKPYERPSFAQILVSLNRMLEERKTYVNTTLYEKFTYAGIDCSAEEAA
measurementNotes: Inhibition of Tie2 autophosphorylation in EA.hy926 cells after […]
Type: cell-based
Answers are plain numbers, as −log10 of the molar value.

Guide cases for pIC50, answers given:
- querySmiles: "CNc1ncnc(-c2cccnc2Oc2cc(NC(=O)c3cccc(-n4cccc4)c3)ccc2C)n1"
  assayedSystem: "Angiopoietin-1 receptor (Homo sapiens, UniProt Q02763)"
  pIC50: 7.64
- querySmiles: "CNc1cc(-c2cccnc2Oc2cc(NC(=O)c3cccc(OC(F)(F)C(F)F)c3)ccc2C)ccn1"
  assayedSystem: "Angiopoietin-1 receptor (Homo sapiens, UniProt Q02763)"
  pIC50: 7.89
- querySmiles: "CNc1ncnc(-c2cccnc2Oc2cc(NC(=O)c3cccc(C(C)C)c3)ccc2C)n1"
  assayedSystem: "Angiopoietin-1 receptor (Homo sapiens, UniProt Q02763)"
  pIC50: 8.30

Value sought for every listed molecule: pIC50.
1. CNc1ncnc(-c2cccnc2Oc2cc(NC(=O)c3cccc(OC(F)(F)F)c3)ccc2C)n1
2. CNc1cc(-c2cccnc2Oc2cc(NC(=O)c3cccc(C(C)C)c3)ccc2C)ccn1
3. CNc1ncnc(-c2cccnc2Oc2cccc(NC(=O)c3cccc(C(C)C)c3)c2)n1
4. CNc1ncnc(-c2cccnc2Oc2cc(NC(=O)c3cccc(OC(F)(F)C(F)F)c3)ccc2C)n1

[reply]
1: 7.82; 2: 7.96; 3: 7.07; 4: 7.48

====

Give pIC50 for every item shown.
assayedSystem: Vascular endothelial growth factor receptor 2 (Homo sapiens)
Sequence (P35968 whole entry): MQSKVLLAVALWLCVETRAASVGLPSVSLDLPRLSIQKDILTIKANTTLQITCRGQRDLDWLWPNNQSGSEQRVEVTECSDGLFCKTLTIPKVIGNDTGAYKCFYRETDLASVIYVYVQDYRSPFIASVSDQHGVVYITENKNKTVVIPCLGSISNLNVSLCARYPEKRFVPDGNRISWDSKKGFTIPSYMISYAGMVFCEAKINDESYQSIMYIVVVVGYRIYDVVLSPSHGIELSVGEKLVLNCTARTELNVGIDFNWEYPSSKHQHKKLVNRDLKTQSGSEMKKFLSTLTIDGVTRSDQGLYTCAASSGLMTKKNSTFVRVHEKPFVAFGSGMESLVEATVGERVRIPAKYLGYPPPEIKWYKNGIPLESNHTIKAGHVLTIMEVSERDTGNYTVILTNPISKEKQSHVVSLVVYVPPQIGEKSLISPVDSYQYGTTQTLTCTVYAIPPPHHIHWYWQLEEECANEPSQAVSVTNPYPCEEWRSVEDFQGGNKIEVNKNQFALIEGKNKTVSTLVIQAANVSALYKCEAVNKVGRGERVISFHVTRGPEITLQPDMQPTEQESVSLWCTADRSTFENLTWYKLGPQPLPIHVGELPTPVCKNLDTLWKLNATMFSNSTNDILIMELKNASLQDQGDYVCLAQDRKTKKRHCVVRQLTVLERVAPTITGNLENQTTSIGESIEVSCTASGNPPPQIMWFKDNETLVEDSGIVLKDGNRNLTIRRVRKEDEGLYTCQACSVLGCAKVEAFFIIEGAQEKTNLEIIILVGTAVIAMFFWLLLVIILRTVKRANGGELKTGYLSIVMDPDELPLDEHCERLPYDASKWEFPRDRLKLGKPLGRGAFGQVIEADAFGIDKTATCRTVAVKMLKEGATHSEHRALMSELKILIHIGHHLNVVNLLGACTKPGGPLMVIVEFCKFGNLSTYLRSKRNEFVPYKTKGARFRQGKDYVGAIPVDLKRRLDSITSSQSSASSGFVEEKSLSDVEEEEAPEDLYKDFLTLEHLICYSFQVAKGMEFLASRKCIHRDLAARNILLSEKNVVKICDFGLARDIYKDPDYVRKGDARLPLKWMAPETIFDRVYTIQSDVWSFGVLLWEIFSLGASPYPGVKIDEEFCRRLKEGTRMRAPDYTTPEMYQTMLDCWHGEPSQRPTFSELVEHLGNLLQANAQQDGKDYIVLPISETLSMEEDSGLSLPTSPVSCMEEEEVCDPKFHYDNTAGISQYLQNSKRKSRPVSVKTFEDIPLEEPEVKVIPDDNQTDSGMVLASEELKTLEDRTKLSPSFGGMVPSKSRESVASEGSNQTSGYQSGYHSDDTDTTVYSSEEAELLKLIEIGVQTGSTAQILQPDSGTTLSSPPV
measurementNotes: Inhibition of KDR after 90 mins by HTRF assay
Answers are plain numbers, as −log10 of the molar value.

- querySmiles: "CNc1ncnc(-c2cccnc2Oc2cc(NC(=O)c3cccc(C(C)C)c3)cc(C(F)(F)F)c2)n1"
  assayedSystem: "Vascular endothelial growth factor receptor 2 (Homo sapiens)"
  measure: "pIC50"
  valueReported: 4.60
- querySmiles: "CNc1ncnc(-c2cccnc2Oc2cc(NC(=O)c3cccc(OC(F)(F)C(F)F)c3)ccc2C)n1"
  assayedSystem: "Vascular endothelial growth factor receptor 2 (Homo sapiens)"
  measure: "pIC50"
  valueReported: 6.00
- querySmiles: "CNc1ncnc(-c2cccnc2Oc2cc(NC(=O)c3cccc(C(F)(F)F)c3)ccc2C)n1"
  assayedSystem: "Vascular endothelial growth factor receptor 2 (Homo sapiens)"
  measure: "pIC50"
  valueReported: 6.51
- querySmiles: "CNc1cc(-c2cccnc2Oc2cc(C(=O)Nc3cccc(C(C)C)c3)ccc2C)ccn1"
  assayedSystem: "Vascular endothelial growth factor receptor 2 (Homo sapiens)"
  measure: "pIC50"
  valueReported: 8.30
- querySmiles: "CNc1ncnc(-c2cccnc2Oc2cc(C(=O)Nc3cccc(C(C)C)c3)ccc2C)n1"
  assayedSystem: "Vascular endothelial growth factor receptor 2 (Homo sapiens)"
  measure: "pIC50"
  valueReported: 7.70
- querySmiles: "Cc1ccc(NC(=O)c2cccc(C(F)(F)F)c2)cc1Nc1ncccc1-c1ccncn1"
  assayedSystem: "Vascular endothelial growth factor receptor 2 (Homo sapiens)"
  measure: "pIC50"
  valueReported: 7.21
- querySmiles: "CNc1ncnc(-c2cccnc2Oc2cccc(NC(=O)c3cccc(C(C)C)c3)c2)n1"
  assayedSystem: "Vascular endothelial growth factor receptor 2 (Homo sapiens)"
  measure: "pIC50"
  valueReported: 6.34
- querySmiles: "CNc1nccc(-c2cccnc2Oc2cc(NC(=O)c3cccc(C(C)C)c3)ccc2C)n1"
  assayedSystem: "Vascular endothelial growth factor receptor 2 (Homo sapiens)"
  measure: "pIC50"
  valueReported: 8.70

Record pIC50 per entry; entries follow.
1. CNc1cc(-c2cccnc2Oc2cc(NC(=O)c3cccc(OC(F)(F)C(F)F)c3)ccc2C)ccn1
2. CNc1cc(-c2cccnc2Oc2cccc(NC(=O)c3cccc(C(C)C)c3)c2)ccn1
3. CNc1nccc(-c2cccnc2Oc2cc(C(=O)Nc3cccc(C(C)C)c3)ccc2C)n1
4. CNc1cc(-c2cccnc2Oc2ccc(Cl)c(NC(=O)c3cccc(C(C)C)c3)c2)ccn1

[reply]
1. 6.63
2. 7.74
3. 7.42
4. 8.05

Provide each entry's pIC50 from the list below.
1. CNc1cc(-c2cccnc2Oc2cc(NC(=O)c3cccc(C(C)C)c3)ccc2C)ccn1
2. CNc1ncnc(-c2cccnc2Oc2cc(NC(=O)c3cccc(C(C)C)c3)ccc2F)n1
3. CNc1ncnc(-c2cccnc2Oc2cc(NC(=O)c3cccc(-n4cccc4)c3)ccc2C)n1
4. CNc1ncnc(-c2cccnc2Oc2cc(NC(=O)c3cccc(C(C)C)c3)ccc2C)n1
5. CNc1ncnc(-c2cccnc2Oc2cc(NC(=O)c3cccc(OC(F)(F)F)c3)ccc2C)n1

[reply]
[7.74, 6.89, 5.95, 6.93, 6.35]

====

assayedSystem: Tyrosine-protein kinase JAK2 (Homo sapiens)
Sequence (O60674 whole entry): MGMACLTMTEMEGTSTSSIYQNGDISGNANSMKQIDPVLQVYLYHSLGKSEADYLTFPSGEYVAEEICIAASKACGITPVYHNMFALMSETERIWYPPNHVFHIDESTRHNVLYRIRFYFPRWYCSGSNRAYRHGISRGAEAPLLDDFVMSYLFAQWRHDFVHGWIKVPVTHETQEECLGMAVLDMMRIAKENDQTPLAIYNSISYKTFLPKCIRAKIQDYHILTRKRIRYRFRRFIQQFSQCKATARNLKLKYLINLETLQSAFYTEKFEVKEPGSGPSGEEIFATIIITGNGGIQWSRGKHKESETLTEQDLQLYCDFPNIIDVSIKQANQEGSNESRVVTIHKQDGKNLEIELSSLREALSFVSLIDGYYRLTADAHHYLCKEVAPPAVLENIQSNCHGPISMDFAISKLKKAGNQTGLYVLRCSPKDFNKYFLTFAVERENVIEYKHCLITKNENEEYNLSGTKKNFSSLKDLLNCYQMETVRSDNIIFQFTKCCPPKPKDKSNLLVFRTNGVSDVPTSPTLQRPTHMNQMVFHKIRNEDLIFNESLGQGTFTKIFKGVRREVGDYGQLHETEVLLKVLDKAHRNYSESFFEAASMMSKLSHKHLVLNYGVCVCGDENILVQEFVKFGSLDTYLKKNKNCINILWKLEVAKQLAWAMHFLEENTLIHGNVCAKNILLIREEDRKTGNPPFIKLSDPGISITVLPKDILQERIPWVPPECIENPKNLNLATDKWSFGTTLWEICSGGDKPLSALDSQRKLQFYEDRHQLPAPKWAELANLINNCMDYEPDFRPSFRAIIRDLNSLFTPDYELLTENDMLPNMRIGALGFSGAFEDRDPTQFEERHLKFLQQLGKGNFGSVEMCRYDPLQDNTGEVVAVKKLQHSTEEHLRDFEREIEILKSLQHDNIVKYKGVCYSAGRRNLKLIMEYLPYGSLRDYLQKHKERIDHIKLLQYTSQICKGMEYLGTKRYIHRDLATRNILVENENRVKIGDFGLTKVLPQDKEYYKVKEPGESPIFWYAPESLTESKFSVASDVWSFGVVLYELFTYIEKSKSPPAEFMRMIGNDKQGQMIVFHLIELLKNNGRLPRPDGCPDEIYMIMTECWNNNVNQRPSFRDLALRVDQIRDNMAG
measure: IC50 (nM)
Answers are plain numbers, in nM.

[ask] Find IC50 (Tyrosine-protein kinase JAK2 (Homo sapiens)) for the entry CNc1ncnc(-c2cccnc2Oc2cc(NC(=O)c3cccc(OC(F)(F)C(F)F)c3)ccc2C)n1
[reply] 1750

====

assayedSystem: Proto-oncogene tyrosine-protein kinase Src (Homo sapiens, UniProt P12931)
Sequence (P12931 2-536 limits assumed): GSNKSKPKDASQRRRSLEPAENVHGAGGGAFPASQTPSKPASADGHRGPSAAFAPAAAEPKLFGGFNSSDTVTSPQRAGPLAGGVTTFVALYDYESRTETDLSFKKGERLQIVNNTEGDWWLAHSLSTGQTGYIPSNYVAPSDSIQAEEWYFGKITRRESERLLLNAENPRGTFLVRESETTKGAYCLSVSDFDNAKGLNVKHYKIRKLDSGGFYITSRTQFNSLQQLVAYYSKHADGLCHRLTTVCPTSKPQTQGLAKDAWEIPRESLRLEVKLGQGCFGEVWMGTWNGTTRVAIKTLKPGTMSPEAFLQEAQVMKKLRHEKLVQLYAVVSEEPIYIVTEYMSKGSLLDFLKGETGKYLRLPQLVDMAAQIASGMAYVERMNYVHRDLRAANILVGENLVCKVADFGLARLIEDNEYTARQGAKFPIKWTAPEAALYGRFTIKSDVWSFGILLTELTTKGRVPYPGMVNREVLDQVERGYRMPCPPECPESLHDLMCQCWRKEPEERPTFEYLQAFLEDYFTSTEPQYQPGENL
measure: IC50 (nM)
Answers are plain numbers, in nM.

[ask] Fill in the blank: the reported IC50 of CNc1ncnc(-c2cccnc2Oc2cc(NC(=O)c3cccc(OC(F)(F)C(F)F)c3)ccc2C)n1 is ____.
[reply] 2190

====

measurementNotes: Oral bioavailability in Sprague-Dawley rat at 10 mg/kg, po
Format: ADME, organism-based
statedConditions: in vivo
measure: bioavailability
Report field: quantity (unit follows the number).

[ask] // query bioavailability value for entry CNc1ncnc(-c2cccnc2Oc2cc(NC(=O)c3cccc(OC(F)(F)C(F)F)c3)ccc2C)n1
[reply] 4%

====

assayedSystem: Mitogen-activated protein kinase 14 (Homo sapiens)
measurementNotes: Inhibition of p38-alpha by radioactive filtration assay
measure: IC50 (nM)
Give bare numbers, in nM.

[ask] // lookup IC50 for CNc1ncnc(-c2cccnc2Oc2cc(NC(=O)c3cccc(OC(F)(F)C(F)F)c3)ccc2C)n1
[reply] 47

====

Please go through the items and note down their IC50.
assayedSystem: UniProtKB P35968
measurementNotes: Inhibition of KDR autophosphorylation in EA.hy926 cells after […]
Type: cell-based
Give bare numbers, in µM.

Here are 3 compounds together with their reported answers.
- querySmiles: "CNc1cc(-c2cccnc2Oc2cc(NC(=O)c3cccc(OC(F)(F)C(F)F)c3)ccc2C)ccn1"
  IC50 / µM: 0.943
- querySmiles: "CNc1ncnc(-c2cccnc2Oc2cc(NC(=O)c3cccc(OC(F)(F)C(F)F)c3)ccc2C)n1"
  IC50 / µM: 4.3
- querySmiles: "CNc1ncnc(-c2cccnc2Oc2cc(NC(=O)c3cccc(OC(F)(F)F)c3)ccc2C)n1"
  IC50 / µM: 0.54

Let's switch to this compound now.
[ask] Entry under review: CNc1ncnc(-c2cccnc2Oc2cc(NC(=O)c3cccc(-n4cccc4)c3)ccc2C)n1 . Reported IC50?
[reply] 25

====

measurementNotes: Clearance in Sprague-Dawley rat at 2 mg/kg, iv
Assay type: ADME, organism-based
Design: dose 2 mg/kg, route intravenous
statedConditions: in vivo
clearance under 60 mL/min/kg gets condition met, anything at or over 60 mL/min/kg gets condition not met.

Answered examples (6):
- querySmiles: "CNc1ncnc(-c2cccnc2Oc2cccc(NC(=O)c3cccc(C(C)C)c3)c2)n1"
  labelValue: "condition not met"
- querySmiles: "CNc1ncnc(-c2cccnc2Oc2cc(NC(=O)c3cccc(C(C)C)c3)ccc2F)n1"
  labelValue: "condition met"
- querySmiles: "CNc1ncnc(-c2cccnc2Oc2cc(NC(=O)c3cccc(-n4cccc4)c3)ccc2C)n1"
  labelValue: "condition not met"
- querySmiles: "CNc1cc(-c2cccnc2Oc2cc(NC(=O)c3cccc(C(C)C)c3)ccc2C)ccn1"
  labelValue: "condition met"
- querySmiles: "CNc1ncnc(-c2cccnc2Oc2cc(NC(=O)c3cccc(OC(F)(F)C(F)F)c3)ccc2C)n1"
  labelValue: "condition met"
- querySmiles: "CNc1ncnc(-c2cccnc2Oc2cc(NC(=O)c3cccc(C(C)C)c3)ccc2C)n1"
  labelValue: "condition not met"

[ask] Given CNc1ncnc(-c2cccnc2Oc2cc(NC(=O)c3cccc(OC(F)(F)F)c3)ccc2C)n1 , is recorded clearance strictly lower than 60 mL/min/kg?
[reply] condition not met

Cited source: ChEMBL document CHEMBL1139197
